tested target: UniProtKB P40337
Sequence (P40337 whole entry): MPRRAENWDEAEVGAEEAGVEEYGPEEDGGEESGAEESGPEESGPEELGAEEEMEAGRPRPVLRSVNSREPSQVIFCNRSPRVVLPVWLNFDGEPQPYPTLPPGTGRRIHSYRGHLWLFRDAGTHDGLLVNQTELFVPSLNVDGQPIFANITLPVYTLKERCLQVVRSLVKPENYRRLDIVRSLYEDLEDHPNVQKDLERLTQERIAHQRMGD
pKd: −log10 of the molar value.
readout: pKd

{"columns": ["query smiles", "readout", "rel", "measured number"],
 "data": [
  ["CC(=O)N[C@H](C(=O)N1C[C@H](O)C[C@H]1C(=O)N[C@H](Cc1ccccc1)C(N)=O)C(C)(C)C", "pKd", "<", 4.24],
  ["CC(=O)N[C@H](C(=O)N1C[C@H](O)C[C@H]1C(=O)N[C@H](Cc1ccc(C(C)(C)C)cc1)C(N)=O)C(C)(C)C", "pKd", "<", 4.24],
  ["CC(=O)N1CCCC[C@H]1C(=O)N1C[C@H](O)C[C@H]1C(=O)N[C@H](Cc1ccc(-c2ccccc2)cc1)C(N)=O", "pKd", "=", 4.98],
  ["NC(=O)[C@@H](Cc1ccc(-c2ccccc2)cc1)NC(=O)[C@@H]1C[C@@H](O)CN1C(=O)Cc1ccoc1", "pKd", "<", 4.24],
  ["CC(=O)N[C@H](C(=O)N1C[C@H](O)C[C@H]1C(=O)N[C@H](Cc1ccc(-c2ccc(F)cc2)cc1)C(N)=O)C(C)(C)C", "pKd", "=", 4.93],
  ["CC(=O)N1CCC[C@H]1C(=O)N1C[C@H](O)C[C@H]1C(=O)N[C@H](Cc1ccc(-c2ccccc2)cc1)C(N)=O", "pKd", "<", 4.24],
  ["CCC(C)(C)[C@@H](C(=O)N1C[C@H](O)C[C@H]1C(=O)N[C@H](Cc1ccc(-c2ccccc2)cc1)C(N)=O)n1cc(C2CC2)nn1", "pKd", "=", 7.23]
]}
